# targetOrSystem: T1, human Claudin 3 (human, UniProt O15551 1-220)
# T1 construct: forced expression in DG44 or Ba/F3 cells, or endogenous on MCF7 cells; four-transmembrane tight junction protein; also called hCLDN3; hCLN3
# T1 sequence: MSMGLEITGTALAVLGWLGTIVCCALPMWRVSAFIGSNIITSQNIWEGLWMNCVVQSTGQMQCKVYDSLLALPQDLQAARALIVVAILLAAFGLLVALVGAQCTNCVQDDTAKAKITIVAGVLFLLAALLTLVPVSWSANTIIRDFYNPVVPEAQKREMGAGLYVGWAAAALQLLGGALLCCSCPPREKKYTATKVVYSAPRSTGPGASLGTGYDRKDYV
# experimentDescription: flow cytometry, hCLDN3/Ba/F3 cells, 2 ug/mL antibody
propertyName: X geometric mean
Please reply with the number alone, leaving off any unit.

Task: Find the recorded X geometric mean belonging to CDN35 (antibody, V domains shown, mouse monoclonal, IgG2a/IgK) VH: EVQLQQSGPELVKPGASVKMSCKASGYTFTDYYMNWVKQSHGKSLEWIGRVNPSNGGTSYNQKFKGKATLTVDKSLSTAYMQLNSLTSEDSAVYYCARGLAYYSNSFTYWGQGTLVTVSA VL: KIVLTQSPASLAVSLRQRATISCRASESVDSYGNSFMHWYQQKPGQPPKLLIYRASNLESGVPARFSGSGSRTDFTLTIDPVEADDAATYYCQQNNEDPWTFGGGTKLEIKR and report it.
Result: 2150
